# Target under test: T1, Her2 ECD (amino acids 1 to 629 of matured HER2 with C-terminal avi-tag and His-tag) (human, UniProt P04626 23-652)
# T1 construct: also called purified Her2
# Method description: SPR, Ab captured, Her2 analyte;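 also: ProteOn XPR36 SPR, rate constants from simultaneous fit of association and dissociation sensorgrams to a 1:1 Langmuir model, buffer-channel referenced, KD taken as koff/kon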
Measured koff, listed per entry.

{"Binder": "Pertuzumab HC x Pertuzumab (Tras.L3) K24R LC (antibody, V domains shown) VH: EVQLVESGGGLVQPGGSLRLSCAASGFTFTDYTMDWVRQAPGKGLEWVADVNPNSGGSIYNQRFKGRFTLSVDRSKNTLYLQMNSLRAEDTAVYYCARNLGPSFYFDYWGQGTLVTVSS VL: DIQMTQSPSSLSASVGDRVTITCRASQDVSIGVAWYQQKPGKAPKLLIYSASYRYTGVPSRFSGSGSGTDFTLTISSLQPEDFATYYCQQHYTTPPTFGQGTKVEIK", "Value reported": "0.00211 s⁻¹"}
{"Binder": "Pertuzumab HC x Pertuzumab (Tras.L3) P96Y LC (antibody, V domains shown) VH: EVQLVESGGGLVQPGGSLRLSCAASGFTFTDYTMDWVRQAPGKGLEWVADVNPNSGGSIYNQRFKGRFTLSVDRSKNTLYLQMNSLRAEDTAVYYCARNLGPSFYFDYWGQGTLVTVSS VL: DIQMTQSPSSLSASVGDRVTITCKASQDVSIGVAWYQQKPGKAPKLLIYSASYRYTGVPSRFSGSGSGTDFTLTISSLQPEDFATYYCQQHYTTPYTFGQGTKVEIK", "Value reported": "0.00097 s⁻¹"}

// moving on: another record for koff
Query string: Identify measured koff associated with Pertuzumab HC x Pertuzumab (Tras.L3) I31V LC (antibody, V domains shown) VH: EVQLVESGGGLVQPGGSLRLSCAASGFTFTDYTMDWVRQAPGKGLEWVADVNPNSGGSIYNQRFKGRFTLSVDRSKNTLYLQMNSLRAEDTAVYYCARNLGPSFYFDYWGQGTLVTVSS VL: DIQMTQSPSSLSASVGDRVTITCKASQDVSVGVAWYQQKPGKAPKLLIYSASYRYTGVPSRFSGSGSGTDFTLTISSLQPEDFATYYCQQHYTTPPTFGQGTKVEIK
Result string: 0.00192 s⁻¹
